Where do the numbers come from? From ChEMBL document CHEMBL3351618.

- Test system: Trypanosoma cruzi
- assay remarks: Trypanocidal activity against intracellular amastigote form of Trypanosoma cruzi IRHOD/CO/2008/SN3 in african green monkey Vero cells
- Format: functional, organism-based
- cond: IRHOD/CO/2008/SN3, Vero
pIC50: −log10 of the molar value.
recorded endpoint: pIC50

| smiles data | recorded endpoint | reported measurement |
| --- | --- | --- |
| CC(C)c1cc2c(cc1O)[C@@]1(C)CCCC(C)(C)[C@@H]1CC2=O | pIC50 | 4.61 |
| CC(C)c1cc2c(cc1O)[C@@]1(C)CCC[C@@](C)(CO)[C@@H]1[C@@H](O)C2=O | pIC50 | 5.15 |
| CC(C)c1cc2c(c(Br)c1O)[C@@]1(C)CCCC(C)(C)[C@@H]1CC2 | pIC50 | 4.38 |
| COC(=O)[C@]1(C)CCC[C@]2(C)c3ccc(O)cc3CC[C@@H]12 | pIC50 | 4.57 |
| CC(=O)OC[C@@]1(C)CCC[C@]2(C)c3cc(O)c(C(C)C)cc3C(=O)C[C@@H]12 | pIC50 | 4.59 |

----------
- assay remarks: Selectivity index, ratio of IC50 for african green monkey Vero cells to IC50 for epimastigote Trypanosoma cruzi IRHOD/CO/2008/SN3
- Assay type: toxicity, cell-based
- cond: read-out: Ratio IC50
Reported selectivity ratio values for a set of compounds

| smiles data | selectivity ratio |
| --- | --- |
| CC(C)c1cc2c(cc1O)[C@@]1(C)CCCC(C)(C)[C@@H]1CC2=O | 1.37 |
| CC(=O)OC[C@@]1(C)CCC[C@]2(C)c3cc(O)c(C(C)C)cc3C(=O)C[C@@H]12 | 2.8 |
| CC(C)c1cc2c(cc1O)[C@@]1(C)CCC[C@@](C)(CO)[C@@H]1[C@@H](O)C2=O | 11.8 |
| CC(C)c1cc2c(c(Br)c1O)[C@@]1(C)CCCC(C)(C)[C@@H]1CC2 | 3.69 |
| COC(=O)[C@]1(C)CCC[C@]2(C)c3ccc(O)cc3CC[C@@H]12 | 12.1 |

----------
- System: Trypanosoma brucei
- assay remarks: Antitrypanosomal activity against trypomastigote Trypanosoma brucei Squib-427 strain cultured in MRC-5 cells assessed as parasite growth after 7 days by beta-galactosidase assay
- Assay type: functional, organism-based
- cond: Squib-427, MRC5, 168 h

| molecule | IC50 / µM |
| --- | --- |
| CC(C)C1=CC2=C[C@H](O)[C@H]3C(C)(C)C(O)C=C[C@]3(C)C2=C(O)C1=O (stereo partly specified) | 1.9 |

----------
Reported selectivity ratio values for a set of compounds
- assay remarks: Selectivity index, ratio of IC50 for african green monkey Vero cells to IC50 for intracellular amastigote form of Trypanosoma cruzi IRHOD/CO/2008/SN3
- Format: toxicity, cell-based
- cond: read-out: Ratio IC50
recorded endpoint: selectivity ratio

| smiles data | recorded endpoint | reported measurement |
| --- | --- | --- |
| COC(=O)[C@]1(C)CCC[C@]2(C)c3ccc(O)cc3CC[C@@H]12 | selectivity ratio | 17.5 |
| CC(C)c1cc2c(cc1O)[C@@]1(C)CCC[C@@](C)(CO)[C@@H]1[C@@H](O)C2=O | selectivity ratio | 31.4 |
| CC(C)c1cc2c(c(Br)c1O)[C@@]1(C)CCCC(C)(C)[C@@H]1CC2 | selectivity ratio | 4.38 |
| CC(C)c1cc2c(cc1O)[C@@]1(C)CCCC(C)(C)[C@@H]1CC2=O | selectivity ratio | 1.84 |
| CC(=O)OC[C@@]1(C)CCC[C@]2(C)c3cc(O)c(C(C)C)cc3C(=O)C[C@@H]12 | selectivity ratio | 2.8 |
